Tested on: SNB-75 CNS
runDescription: NCI-60 one-dose screen, 48 h (100 = growth as untreated, 0 = no growth, -100 = all killed)
setupConditions: 10 µM unless noted
This is part of a sample that, as a whole, favours compounds with a hit. Of some 83,000 tested, about 20% had one in any assay.
Cut-off 60% on growth, inclusive. At or above means T; below means F.

Form field: growth at least 60%? Entry: `O=C(NNC(=S)Nc1ccccc1)c1ccc(Nc2ncnc3c2cnn3-c2cccc(Br)c2)cc1`
T

Form field: growth at least 60%? Entry: `Cc1n(Cc2ccc3ccccc3n2)cc[n+]1Cc1ccc2ccccc2c1`
F

Form field: growth at least 60%? Entry: C#CC[C@@H]1C[C@]2(C)[C@H]3CC[C@@H]4[C@H]5C(C(=C)C)CC[C@]5(C(=O)NCCCCN)CC[C@@]4(C)[C@]3(C)CC[C@H]2C(C)(C)[C@H]1OC(C)=O (some centres not stated)
F

Form field: growth at least 60%? Entry: `CCNC(=S)N(Cc1ccccc1)Cc1ccccc1`
T

Form field: growth at least 60%? Entry: `COS(=O)(=O)CCN(CCOS(C)(=O)=O)S(C)(=O)=O`
T

Form field: growth at least 60%? Entry: `COc1ccc2nc(C)cc(Nc3ccccc3O)c2c1`
F

Form field: growth at least 60%? Entry: `Cn1nc(C(F)(F)F)cc1-c1cc(Cl)c(OCc2ccc(Cl)cc2)c(-c2ccc(Cl)c(C(F)(F)F)c2)c1O`
F

Form field: growth at least 60%? Entry: CC1=NC(c2ccc(Cl)cc2)C2=C(N1)/C(=C/c1ccc(Cl)cc1)CCC2 (configuration not stated)
T

Form field: growth at least 60%? Entry: `CCOc1cccc(/C=N/NC(=O)Cc2ccc(Nc3ccnc(C(F)(F)F)c3)cc2)c1O`
F

Form field: growth at least 60%? Entry: CC(COC(=O)c1ccccc1)N1CC2CCC(C1)O2 (configuration not stated)
T

Form field: growth at least 60%? Entry: `C#CC[C@@H]1C[C@]2(C)[C@H]3CC=C4[C@H]5[C@@H](C)[C@H](C)CC[C@]5(C(=O)NCCCN5CCN(CCCN)CC5)CC[C@@]4(C)[C@]3(C)CC[C@H]2C(C)(C)[C@H]1OC(C)=O`
F

Form field: growth at least 60%? Entry: COc1cc(C2CC(c3cccc(Nc4ccnc5cc(Cl)ccc45)c3)=NN2c2ccc(Cl)cc2)cc(OC)c1OC (configuration not stated)
T

Form field: growth at least 60%? Entry: `FC1(F)CCN(Cc2c[nH]c3cc(Cl)ccc23)C[C@H]1CCc1ccccc1`
F

Form field: growth at least 60%? Entry: O=C(/C=C/c1ccccc1)C(Br)C(Br)c1ccccc1 (configuration not stated)
T

Form field: growth at least 60%? Entry: `COc1ccc(/C=C(/C(=O)N2CCN(c3ccccc3)CC2)c2cc(OC)c(OC)c(OC)c2)cc1O`
T

Form field: growth at least 60%? Entry: `Cc1cccc(C(=O)O)n1`
T

Form field: growth at least 60%? Entry: `CC(=O)c1ccc(-n2c(-c3cc(-c4ccsc4)n[nH]3)n[nH]c2=S)cc1`
T

Form field: growth at least 60%? Entry: `O=C(c1ccc(C(F)(F)F)c(Cl)c1)N(Cc1ccc(Cl)cc1)c1ccc(-c2cc(C(F)(F)F)[nH]n2)c(O)c1`
F

Form field: growth at least 60%? Entry: CCC1CCc2nc3sc(C(=O)Nc4cccc(F)c4)c(N)c3cc2C1 (configuration not stated)
F

Form field: growth at least 60%? Entry: `C=CCn1c(SCC(=O)Nc2ccc(C(=O)/C=C/c3ccccc3)cc2)nnc1-c1ccc(OC)c(OC)c1`
T

Form field: growth at least 60%? Entry: CCCCCCCCNC(C)C(O)c1ccc(SC(C)C)cc1 (configuration not stated)
T

Form field: growth at least 60%? Entry: `CN1CCN(c2ccc(N3Cc4ccccc4OC4=C3C(=O)c3c(O)ccc(O)c3C4=O)cn2)CC1`
F

Form field: growth at least 60%? Entry: `COc1ccc(NC(=O)/C=C/c2ccc(NC(=O)N3CCCC3)cc2)cn1`
T

Form field: growth at least 60%? Entry: CC(=O)OC1Oc2cc(C)c(C)cc2-c2oc(=O)c(-c3cc4ccccc4oc3=O)cc21 (configuration not stated)
T

Form field: growth at least 60%? Entry: `C=C(C)[C@@H]1CC[C@]2(C)[C@H](CC=C3[C@@H]4C[C@](C)(C(=O)N5CCN(C)CC5)CC[C@]4(C)CC[C@]32C)[C@@]1(C)CCC#N`
T

Form field: growth at least 60%? Entry: CCOC(CN1CCN(CC(C)C(=O)c2ccccc2)CC1)c1ccccc1 (configuration not stated)
T

Form field: growth at least 60%? Entry: `CN1CCN(Cc2ccc(NC(=O)c3cnc(F)c(C#Cc4cnc(N)c5ncccc45)c3)cc2C(F)(F)F)CC1`
F

Form field: growth at least 60%? Entry: `COCCOCCOCc1n(Cc2ccc3ccccc3n2)c2ccccc2[n+]1Cc1ccc2ccccc2c1`
F

Form field: growth at least 60%? Entry: CCOC(=O)C1=C(C)NC(SCc2nnc(-c3ccc(Cl)cc3)o2)=NC1c1ccc(Cl)cc1 (configuration not stated)
T

Form field: growth at least 60%? Entry: `CC(=O)c1nn(-c2ccccc2)/c(=N\N=C\c2coc3ccc(F)cc3c2=O)s1`
T

Form field: growth at least 60%? Entry: `CNC(=O)c1cc(Oc2ccc(NC(=O)c3nc(S(C)(=O)=O)sc3-c3ccc(F)cc3)cc2)ccn1`
T

Form field: growth at least 60%? Entry: CCN(CC)CCCC(C)Nc1cnc(C(=O)Nc2cccc3ccc(OC)nc23)cn1 (configuration not stated)
T

Form field: growth at least 60%? Entry: COc1ccc(C2CC(c3ccc(Nc4ccnc5cc(Cl)ccc45)cc3)=NN2c2ccccc2)cc1 (configuration not stated)
T

* * *

System: T-47D breast
runDescription: NCI-60 one-dose screen, 48 h (100 = growth as untreated, 0 = no growth, -100 = all killed)
setupConditions: 10 µM unless noted
Compounds without any hit were thinned out: in the full panel of roughly 83,000, 20% have a hit.
Consider the following compounds; for each one, report its growth.
Numbers only; they are read as %.

Give the reported value of growth for this record: `Oc1ccc(Nc2ncnc3c2sc2ncccc23)cc1`
51

Give the reported value of growth for this record: `O=[N+]([O-])c1cc(F)c2cccnc2c1O`
99.5

Give the reported value of growth for this record: `COc1ccc(-n2nc(C(=O)NCC(=O)Nc3nc4cc(OC)ccc4s3)c3ccccc3c2=O)cc1`
17

Give the reported value of growth for this record: `COc1ccc2[nH]cc(/C=C3\C(=O)Nc4ccccc43)c2c1`
36.6

Give the reported value of growth for this record: `COc1ccc(-c2nn(-c3cccc(Cl)c3)cc2/C=C2\C(=N)N(c3ccccc3)N=C2N)cc1`
28.6

Give the reported value of growth for this record: `COc1ccc(Nc2ncccc2C(=O)NCc2cn(Cc3cc(OC)cc(OC)c3)nn2)cc1`
93.6

Give the reported value of growth for this record: `CC(=O)N(C)c1ccc(Nc2cc(C)[nH]c3ccc4ncnc4c23)cc1`
47.5

Give the reported value of growth for this record: `Clc1ccc2c(c1)-n1cccc1C(c1ccc3ccccc3c1)=NC2`
76.5

Give the reported value of growth for this record: `CCSc1ccc([C@@H]2[C@@H](O)C(=O)N2c2cc(OC)c(OC)c(OC)c2)cc1`
76.6

Give the reported value of growth for this record: `O=C1OC(c2ccc(-c3ccccc3)cc2)=C/C1=C/c1c(Cl)cccc1Cl`
91.3

Give the reported value of growth for this record: N#CC1=C(N)Oc2nc[nH]c(=O)c2C1c1cccs1 (stereo unspecified)
95.2

Give the reported value of growth for this record: `CN1CCN(Cc2ccc(NC(=O)c3cncc(C#Cc4ccc(N)nc4)c3)cc2C(F)(F)F)CC1`
8.16

Give the reported value of growth for this record: `COc1ccc(-c2nnc(SCC(=O)Nc3ccc(C(=O)/C=C/c4ccc(Cl)cc4)cc3)n2-c2ccccc2)cc1`
88

Give the reported value of growth for this record: `NC(N)=N/N=C/c1ccccc1`
94

Give the reported value of growth for this record: `COC(=O)c1cc2oc(/C=N/NC(=O)c3cc4oc(-c5cccc(C(F)(F)F)c5)cc4[nH]3)cc2n1Cc1ccccc1`
94.4

Give the reported value of growth for this record: `COc1ccc(/C(=C\c2cc(OC)c(OC)c(OC)c2)C(=O)Nc2nc3ccc(Cl)cc3s2)cc1`
86.7

Give the reported value of growth for this record: CC(CN1CCN(C)CC1)CN1c2ccccc2Sc2ccc(C(F)(F)F)cc21 (stereo unspecified)
63.4

Give the reported value of growth for this record: `CN1CCN(Cc2ccc(NC(=O)c3cnc(F)c(C#Cc4cnc(N)c5ncccc45)c3)cc2C(F)(F)F)CC1`
30.3

Give the reported value of growth for this record: `CCCCn1c(-c2ccc(F)cc2)nc2cc(OC)c(OC)cc2c1=O`
89.1

Give the reported value of growth for this record: `Cc1ccc(N=CNN=C(N)N)cc1`
98.8

Give the reported value of growth for this record: `COc1ccc2[nH]c(C(=O)OCc3ccc4cccc(O)c4n3)cc2c1`
-53.9
